# Tested on: A549 lung tumors
# Assay type: in vivo, hairless mice
# Test settings: Day 11; 11 μmol of epothilone/kg of body weight i.v. (formulations: plus 100 μmol of Gd/kg); day 0 normalized to 1
# Protocol: A549 lung tumors were induced in hairless mice (4×10^6 cells/30 μl of full medium). Animal weights and tumor surface areas/volumes were determined, and in this case, the tumor surface area or the tumor volume (based on an ellipsoid of revolution) was calculated. Length and width of the tumor were measured with vernier calipers. After reaching the size of a pea, the treatment was begun. […] The animal weights and tumor sizes were measured over a period of 20 days after intravenous administration.
Collected Relative tumor surface area values appear next to each entry.

>  <Smiles record>
C=CC[C@H]1C(=O)C(C)(C)[C@@H](O)CC(=O)O[C@H](c2ccc3sc(C)nc3c2)C[C@@H]2O[C@]2(C)CCC[C@H](C)[C@@H]1O

>  <Relative tumor surface area>
1.3 ± 0.2

$$$$
>  <Smiles record>
C#CC[C@H]1C(=O)C(C)(C)[C@@H](O)CC(=O)O[C@H](/C(F)=C/c2coc(C)n2)C/C=C(/C)CCC[C@H](C)[C@@H]1O

>  <Relative tumor surface area>
1.2 ± 0.2

$$$$
>  <Smiles record>
C#CC[C@H]1C(=O)C(C)(C)[C@@H](O)CC(=O)O[C@H](/C(F)=C/c2csc(C)n2)C/C=C(/C)CCC[C@H](C)[C@@H]1O

>  <Relative tumor surface area>
1.3 ± 0.1

$$$$
>  <Smiles record>
Cc1nc(/C=C(\Cl)[C@@H]2C[C@@H]3O[C@]3(C)CCC[C@H](C)[C@H](O)[C@@H](C)C(=O)C(C)(C)[C@@H](O)CC(=O)O2)cs1

>  <Relative tumor surface area>
1.4 ± 0.3

$$$$
>  <Smiles record>
CC[C@H]1C(=O)C(C)(C)[C@@H](O)CC(=O)O[C@H](/C(F)=C/c2ccccn2)C/C=C(/C)CCC[C@H](C)[C@@H]1O

>  <Relative tumor surface area>
1.3 ± 0.1

$$$$
>  <Smiles record>
C#CCC[C@H]1C(=O)C(C)(C)[C@@H](O)CC(=O)O[C@H](/C(C)=C/c2ccccn2)C/C=C(/C)CCC[C@H](C)[C@@H]1O

>  <Relative tumor surface area>
1.3 ± 0.3

$$$$

----------
# Test system: A549 lung tumors
# Format: in vivo, hairless mice
# Test settings: Day 15; 11 μmol of epothilone/kg of body weight i.v. (formulations: plus 100 μmol of Gd/kg); day 0 normalized to 1
Property measured: Relative tumor surface area

>  <Smiles record>
CC[C@H]1C(=O)C(C)(C)[C@@H](O)CC(=O)O[C@H](/C(F)=C/c2ccccn2)C/C=C(/C)CCC[C@H](C)[C@@H]1O

>  <Measurement>
1.5 ± 0.3

$$$$
>  <Smiles record>
C#CCC[C@H]1C(=O)C(C)(C)[C@@H](O)CC(=O)O[C@H](/C(C)=C/c2ccccn2)C/C=C(/C)CCC[C@H](C)[C@@H]1O

>  <Measurement>
1.4 ± 0.3

$$$$
>  <Smiles record>
C#CC[C@H]1C(=O)C(C)(C)[C@@H](O)CC(=O)O[C@H](/C(F)=C/c2csc(C)n2)C/C=C(/C)CCC[C@H](C)[C@@H]1O

>  <Measurement>
1.5 ± 0.2

$$$$
>  <Smiles record>
C=CC[C@H]1C(=O)C(C)(C)[C@@H](O)CC(=O)O[C@H](c2ccc3sc(C)nc3c2)C[C@@H]2O[C@]2(C)CCC[C@H](C)[C@@H]1O

>  <Measurement>
1.5 ± 0.3

$$$$
>  <Smiles record>
Cc1nc(/C=C(\Cl)[C@@H]2C[C@@H]3O[C@]3(C)CCC[C@H](C)[C@H](O)[C@@H](C)C(=O)C(C)(C)[C@@H](O)CC(=O)O2)cs1

>  <Measurement>
1.5 ± 0.3

$$$$
>  <Smiles record>
C#CC[C@H]1C(=O)C(C)(C)[C@@H](O)CC(=O)O[C@H](/C(F)=C/c2coc(C)n2)C/C=C(/C)CCC[C@H](C)[C@@H]1O

>  <Measurement>
1.5 ± 0.3

$$$$
